Where do these numbers come from? They come from the domain aggregation screens of Martell et al. (2025).

experiment: soluble fraction after stress (log2 fold change); higher = more stays soluble; pooled small domains, quantitative proteomics; settings: stress: 50 degC
Label 0 if soluble fraction (log2) falls below -0.5; label 1 in every other case.

1. HMNTGFPIILETSDAANLTVGAPIMYRGVEVGKIRNMELNSLGDRVLIHILIGHKYQHLVRQNSEFWFSS = 0
2. HMKSISMSKLRHLLQLYVQGRSKKLISEQTGIARNTLKKYIKEFSEAGLSLEALLALSDKELEDLFVK = 0
3. HMNQLSYTERRVLQVIEGGTTKTGEIEQALAAKMSRPTVHRALDALVGANRIHRLARGEYALGPAP = 1
4. HMALQDKYKELTDAATAAGVTDLQVREQDNVLYIDGTAPSGAVKDQLWAIYDKIDPNFVSGDLVLNVNVD = 1
5. HMNSYKGELLVDDKNIRLDLYLFNQFNFFSRTKIKNYILKGNVLVNNNKTSPSYILKGSEKIYYDFSVS = 0
6. HMVGADTISDLISQRGRMIGDKPITNAVIKSGSEFSTINALSKAIASGDARTNDVEGMKPVFR = 1
7. HMQPPKIISTVEPYREVVREYLKQGVEMTAIWQRLRENYQYTGSYSSVRRFVAQLEPRQPEA = 0
8. HMFTNSTSSRQLTNSDDTLRLNISSQTRQMLPNGQPFGGSLSGKLLLVIYGATTRSIPAQTTPEKIVV = 1

Does the reported soluble fraction (log2) for HMIDQSVVVQYLSKLTNTPYLKTREITMGEPYMQFERGEIKFQEYVEDIRALLPGGDRIDADRLRDIWMNS fall at or above the -0.5 mark?
0

Textbook exercise: given the entry HMALQDKYAELLTAANTMGVTNLAVAEKDGTLHVSGTAKSTADYDSLWALYDKIDPNMASGDLMMNI , state whether its soluble fraction (log2) is greater than or equal to -0.5.
1

Check the entry HMAENTIPSVIGKTLSDATFLLESYGYERGGVSEEYSEMPKGVVIRQSPQAGSSADPGTKVNLVVSLGEEI : does soluble fraction (log2) equal or exceed -0.5?
1

Please tell me: is the sequence HMVLQHHTATKALSYHTSASASAAVKGSFARGDSVQVVQGGSQTADGAKWHKVKVGSSYYYAAAEHLTP at or over -0.5 in terms of soluble fraction (log2)?
1

Check this sequence for soluble fraction (log2) at or above -0.5: HMQPDDELVRLLLIKIFNDKQLKVNPAVINYLLRRIDRSFESINNFVKKIDEFSLEKGRKITVNLVSGFF
0

Has HMSKFSDTLVYLRKRAGFSQQELADKMEVSRSLVGMYESGQRMPSYEMLEALADIFNVNIDFLTGH a recorded soluble fraction (log2) greater than or equal to -0.5?
1

====

assay: soluble fraction after stress (log2 fold change); higher = more stays soluble; pooled small domains, quantitative proteomics; details: stress: 50 degC
measured metric: soluble fraction (log2)
Write the number on its own, no unit after it.

The examples below pair each entry with its known result.
1. HMSKQQVRSILDDIPNIGETRRKALMRQFQSLEKIREASVGQLREVDGMNEKAAQSVYQFFHK = -0.0486
2. HMDSSITLMRMYIPKGHNWENKLISDVSMPTNSLALMIKRNGTTIIPKGDTMILAKDTLILSVPSYEPS = -1.13
3. HMHMELHEKIRLARELNKWSQEEVAEKLEMSPSGYAKIERGETALNIPRLEQIAEIFNIDIWELVKA = -0.573
4. HMTHPQVEAYLDDLARMLADIDPGERDDILASVREHLDAEIAAGHGSDAVVNATLLRLGPPEQVAAAARTN = -0.0824
5. HMKPGTIVTGVVVDIKSDVVVVNAGLKSEGIVPIEQFRNDRGELEVAIGDEVKVALDSLENGFGETVLSRE = 0.0252

soluble fraction (log2) for HMVGPAHIGLAVAKDQLPHWERHLTANGVEIEGRMRWDHGGESIYFRDPDAHLLELVTPGIWAN ?
-0.0453

What measured soluble fraction (log2) goes with HMSGHIPGIKIKGVIFFDKGSSSNHIIATTENNSNLKLRVGETVQGAVLKSIHPNHVIFFHHNQLIEVGIG ?
-2.21

Requested field: soluble fraction (log2). Item: HMSVLLKEEGSLQLARHGAAYFIIYSAQEHPNQRRHLKISEEESNRIMEGTPIEEIFLAYSG
-0.291

====

assay: soluble fraction after stress (log2 fold change); higher = more stays soluble; pooled small domains, quantitative proteomics; conditions: stress: 50 degC
measured metric: soluble fraction (log2)
Please give only the number in your answer, with no unit.

Observe how each entry below is paired with its result.
1) HMEHETTQLELNAPGQRLDAALALALPDTSRAQIQQWIKQGLVTDQAGTALLQASLKLKSPLNVVLQRPI = 0.178
2) HMEKLIRIKRLIKQLNEYRDSYYNEARPVVSDAAYDKLFDELSELEKETGVVYANSPTQTVG = -0.149
3) HMEATEFYLEDLTGQMYNDVVNDEKYAGKIVFEKEEVQSDGEEAIGQILNQRPAGNMNVRIGTTVTLVVNA = -0.0405

Let us examine a further case.
I have this sequence here, HMGDIQFMEYRINHSSGWIGKNISDFAAVSKNLVILIKRGQDVVIPRGPTAIMEDDVLVLHA , and I need its recorded soluble fraction (log2).
-1.6

====

experiment: soluble fraction after stress (log2 fold change); higher = more stays soluble; pooled small domains, quantitative proteomics; settings: stress: 50 degC
Catalogue of sequences with associated soluble fraction (log2)
I'd appreciate a reply containing only the number, no unit.

1. HMGIDVSAFSDTALEVLRLQAAGYTTREIAQQLHITQRTVKYHASENYRKLDARNLVDAVQIAQSLHI = -1.41

// query soluble fraction (log2) value for entry HMTMNYFIIENNQQVGPLTLEQLVARNITSDTLVWKEGMEDWQPAWKVDELHTVLDQIRANAEQ
-0.0599

soluble fraction (log2) lookup needed for HMTSLYDILGIAKTADSQTIKTAFKKKALLYHPDKNNGNLKKEEIFKKISTAYQILSDPKSRANYDLSIA , thanks.
-0.115

I would be grateful if you could share the reported soluble fraction (log2) for HMGLPPIATGVNDNMSFSQAFAAARAEVGAGGAFEWHGRVYGTYYKNEWDGMSAQERHDFEIAAIRGS .
-0.166

Can you share its soluble fraction (log2)? I mean this sequence: HMGLKDTEVYMPDVRGLIEEEAQTKLKASFLTMKVSYTSSDEVKKGYVISQAPSADSVVLKGASVTVIVS
-2.07

soluble fraction (log2) lookup needed for HMSGPVITEERNIANALISGLANMKETPTREQVERKAQQIAELFGYTGDLRNIITEAMISVDT , thanks.
0.059

Requested read-out: soluble fraction (log2). Entry: HMEQAAQPQTGFDPRRLKAGDAVHLLALDQRGVLLEDPKPGAESAPVSVGVAGVRVVVPLREMEALPAG
0.157

Need soluble fraction (log2) of HMKKISAKQQQILDYISSYSLEHGYPPSVREIGAEMGLRSPSTVHAHLKKLQEAGYLEPNEHKSRALTP , thanks.
0.128

====

Some sequences, each annotated with its measured soluble fraction (log2).
experiment: soluble fraction after stress (log2 fold change); higher = more stays soluble; pooled small domains, quantitative proteomics; details: stress: 50 degC
The answer should be a number; do not append a unit.

// below: answered sequences
1) HMPDPLYLINGKIVNKSDFNNIDPRSIQSIEVLKANKALEAFGNDGKNGVIKITLKSSNDQM = 0.0749
2) HMGASALTEREREVLRLLEGGGSDKRIARQLAISEHGVRYHLKSIYKKLGVHDRVSAIAAGRRLAS = -0.21
3) HMAQIVNLPRKNVNGASYYYYEVQPKETIYSISRKLGVSGAEIQRHNPSVADGLKIGQVLYFPAEG = 0.0843
4) HMPSDLQATLRAVQGMLQGVEGVDARLAGQRILLEGDSADARARERAAAIAGIFPGVVIDFVG = -0.155
5) HMQKEMDIVLQINGKMRSNLKVSSTANDDEIIKTAIESDAYKKFSLGLRIQKTIIVPNRLINIVLEK = -0.985

What value of soluble fraction (log2) has been reported for the following sequence? HMAQSLAQKINNYILTNRSSIANVAKSIGYSRTTVSRYLAGKYDSDPTDLENKLAEFLAHETGE
0.076

====

assay: soluble fraction after stress (log2 fold change); higher = more stays soluble; pooled small domains, quantitative proteomics; conditions: stress: 50 degC
Classification field: 1 (yes) = soluble fraction (log2) at or over -0.01; 0 (no) = soluble fraction (log2) under -0.01.

1. HMVSDSAELSAFVADVIKENAQAVADYKGGKTNVFGWLMGQIIKKSGGKATPAAAAALLKAELEK = 1 (yes)
2. HMGDWITGTVTRIADNGWGTFQPENAHNTVSIPPKMVADNQLKEADSIKIIAEPSPDGTKTFIKAISRE = 1 (yes)
3. HMENLQLQQLVKGLPEKMQEIVILRFSQELTMREIADIVNLPMRTVQSQLRLALKILKKEMG = 0 (no)
4. HMRDLAEAETILDALPTRLRKIVRWRHLEGLSQTEIAARLEISQMHVSRLYRRAISMIHASLADD = 0 (no)
5. HMIKYTIEELGELTGFTRRTIRYYVQEGLIDPPAGRGRGGFYYDSHVQQLLRIKSFQEKGIGITAMVSLM = 0 (no)
6. HMQRADYLILYYIKMQAEQHPDSKVYLADLAAVMGLKVTELSKAVEKLQDNGFVAWKTDREAGRTYVELS = 0 (no)

Please check the record HMTTGTVKWFNDAKGFGFITPDDRSVDVFVHYSNIVGQSGRRTLMEGERVEYEAIEGPKGPQATDVARA and state if its soluble fraction (log2) is at or above -0.01.
0 (no)
